- Tested on: SNB-75 CNS
- test: NCI-60 one-dose screen, 48 h
- condition.info: 10 µM unless noted
Compounds without any hit were thinned out: in the full panel of roughly 83,000, 20% have a hit. The source made the active and inactive calls. The calls were made as follows: active = growth percent below 10; inactive = the rest.
Valid outcomes are listed here; reply with one: active, inactive

Solved entries (count: 8):
Could you please tell me the result logged for `COc1nc(N(C)O)nc(N(C)O)n1` in this assay?
inactive

Could you please tell me the result logged for `CCN(CC)CCCNc1ccc(Nc2ccc(OC)cc2)cc1` in this assay?
inactive

Could you please tell me the result logged for `COC(=O)[C@]12CC[C@@H](C)[C@H](C)[C@@H]1C1=CC[C@@H]3[C@@]4(C)C(C=O)=C[C@@](C)(COC(C)=O)[C@@H]4[C@H](O)C[C@@]3(C)[C@]1(C)CC2` in this assay?
active

Could you please tell me the result logged for CC(=O)C(C)Cc1cc2c(cc1C)C(C)(C)CCC2(C)C (centres undefined) in this assay?
inactive

Could you please tell me the result logged for `CC/C=C\C[C@H](O)C/C=C1/C(=O)C=C[C@@H]1C/C=C\CCCCO` in this assay?
inactive

Could you please tell me the result logged for `CCCCCCCC/C=C\CCCCCCCCOc1ccccc1CC(=O)NCC[N+](C)(C)C` in this assay?
inactive

Could you please tell me the result logged for `COc1ccc2nc(NNC(=O)c3cnccn3)c3cccn3c2c1` in this assay?
inactive

Could you please tell me the result logged for Cc1ccc(NS(=O)(=O)c2ccc3c(c2)C2OCCC2C(c2ccc(C(=O)C(C)C)cc2)N3)cc1C (centres undefined) in this assay?
inactive

***
Could you please tell me the result logged for `Cc1ccc2[nH]c(=O)c3c(c2c1)OC(N)=C(C#N)C31c2cc(Br)ccc2-c2ccc(Br)cc21` in this assay?
inactive

====

- Test system: HCC-2998 colon
- test: NCI-60 one-dose screen, 48 h (100 = growth as untreated, 0 = no growth, -100 = all killed)
- condition.info: 10 µM unless noted
Compounds without any hit were thinned out: in the full panel of roughly 83,000, 20% have a hit.
measured.attribute: growth (%)
Give bare numbers, in %.

Given the compound `Cc1cc(NCc2cc(Nc3ccnc4cc(Cl)ccc34)ccc2F)nc(N2CCCC2)n1` , what is its reported growth?
-67.9

Given the compound `O=c1c2cc(F)ccc2sc2c(Nc3cccnc3)nc3ccccc3c12` , what is its reported growth?
94.1

Given the compound `c1cc2ccc3cc2cc1CNCCOCCNCc1ccc2ccc(cc2c1)CNCCOCCNC3` , what is its reported growth?
-57.4

Given the compound `Cn1c(I)c(C#C[Si](C)(C)C)c(=O)n(C(=O)c2ccccc2)c1=O` , what is its reported growth?
0.121

Given the compound `CCOC(=O)c1ccc(N2NC(=O)/C(=C/c3ccc([N+](=O)[O-])o3)C2=O)cc1` , what is its reported growth?
103

Given the compound `N=C(N)c1ccc(-c2ccc(-c3cncc4ccccc34)s2)s1` , what is its reported growth?
-78.3

Given the compound `O=C(CCc1nnc(CN(c2ccccc2)c2ccccc2)o1)c1nc2ccccc2[nH]1` , what is its reported growth?
90.3

Given the compound `C[C@H](NC(=O)[C@@H]1CSSC[C@@H](NC(=O)c2nc3ccccc3cc2O)C(=O)NCC(=O)N1C)c1ccccc1` , what is its reported growth?
55.1

Batch of 2 compounds: report growth for each.
1. CC/C=C1/C(=O)C=C[C@@H]1C/C=C\CCCC(=O)O
2. CCN(CC)CCn1nc2c3c(cccc3c1=O)-c1ccccc1-2

1. 95.1
2. 34.7

====

- Test system: SNB-19 CNS
- test: NCI-60 one-dose screen, 48 h (100 = growth as untreated, 0 = no growth, -100 = all killed)
- condition.info: 10 µM unless noted
About 83,000 compounds went through this panel and 20% of them were active in at least one assay; those are over-represented in the sample as a whole. Calls of active or inactive are those of the source. Rule for the calls: active = growth percent below 10; inactive = the rest.
measured.attribute: growth

Some molecules with known growth results, for comparison:
Given the molecule `CC/C=C\C[C@H](O)C/C=C1/C(=O)C=C[C@@H]1C/C=C\CCCC(=O)OC` , what is its reported growth?
35.2% (inactive)

Given the molecule `COc1nc2c(c(=O)n1C)CN(c1ccccc1)C(=O)CN2C` , what is its reported growth?
57.4% [100 µM] (inactive)

Batch of 6 molecules: report growth for each.
1. Cc1nc2ccccc2n1CC1NC(=O)NC1=O (stereo not drawn)
2. O=S(=O)(Nc1cccc(Cl)c1)c1ccc(-c2cnc(C3CC3)o2)cc1
3. COC(=O)[C@]12CC[C@@H](C)[C@H](C)[C@@H]1C1=CC[C@@H]3[C@@]4(C)C(C=O)=C[C@@](C)(COC(C)=O)C4=CC[C@@]3(C)[C@]1(C)CC2
4. N#Cc1c2c(nn(-c3ccccc3)c1=O)C(O)=C([N+](=O)[O-])C(c1ccccc1)C2 (stereo not drawn)
5. Fc1cnc(NC2CC2)nc1-c1cnc2ccc(N3CCOCC3)cn12
6. CC1O[C@@H](OC2[C@H](OC(=O)/C=C/c3ccc(O)c(O)c3)C(COC3O[C@H](C)C(O)C(O)[C@@H]3O)O[C@@H](OCCc3ccc(O)c(O)c3)[C@H]2O)[C@@H](O)C(O)[C@H]1O (stereo partly drawn)

1. 98.4% (inactive)
2. 24.1% (inactive)
3. 29.8% (inactive)
4. 84.2% (inactive)
5. 11.5% (inactive)
6. 107% (inactive)

====

- Test system: OVCAR-3 ovarian
- test: NCI-60 one-dose screen, 48 h (100 = growth as untreated, 0 = no growth, -100 = all killed)
- condition.info: 10 µM unless noted
The panel holds about 83,000 compounds, 20% with a hit somewhere; the sample as a whole holds those more often.
So I've got a bunch of compounds here, and I need their growth values.
Answers are plain numbers, in %.

Some compounds with known growth results, for comparison:
Given the compound O=c1cc(C2NNC(=S)N2)c2ccc3ccccc3c2o1 (stereo not given) , what is its reported growth?
106

Given the compound `COc1ccc(NC(=O)CSc2nnc(-c3cc(-c4ccc(S(N)(=O)=O)cc4)nc4ccccc34)n2-c2ccccc2)cc1` , what is its reported growth?
95.1

Given the compound N#CCN1C(=O)C2C3=C(CCCC3)SC2N=C1CN1CCCC1 (stereo not given) , what is its reported growth?
113

Given the compound `COc1ccc(NC(=O)CSc2nnc(-c3cc(-c4ccccc4)nc4ccccc34)n2-c2ccccc2)cc1` , what is its reported growth?
103

Given the compound `O=C(/C=C/c1c(Cl)nc2sccn12)c1nccs1` , what is its reported growth?
90.9

Given the compound `COc1ccc(N=C(c2ccccc2)C2C(=O)c3ccccc3C2=O)cc1` , what is its reported growth?
82.3

Given the compound `Cn1cc2c(c1)-c1nc(Nc3ccccc3)ncc1CC2` , what is its reported growth?
69.5

Given the compound `O=C(/C=C/c1ccco1)c1ccc(Nc2nc(Nc3ccc(F)cc3)nc(Nc3ccc(Cl)cc3)n2)cc1` , what is its reported growth?
75

Batch of 2 compounds: report growth for each.
1. COc1ccc2cc(-c3cc(OC)c(OC)c(OC)c3)c(=O)oc2c1
2. N#Cc1c(N)nn(C(=O)c2ccc(NC(=O)c3ccccn3)cc2)c1-c1ccc(Cl)cc1

1: 81.8; 2: 6.15

====

- Test system: TK-10 renal
- test: NCI-60 one-dose screen, 48 h (100 = growth as untreated, 0 = no growth, -100 = all killed)
- condition.info: 10 µM unless noted
About 83,000 compounds went through this panel and 20% of them were active in at least one assay; those are over-represented in the sample as a whole. The source made the active and inactive calls. Rule for the calls: active = growth percent below 10; inactive = the rest.
So I've got a bunch of compounds here, and I need their growth values.

Some compounds with known growth results, for comparison:
Given the compound `O=C(NCCCNc1cc(-c2cn(-c3ccccc3)nc2-c2cccc(O)c2)ccn1)c1cccc(O)c1` , what is its reported growth?
115% (inactive)

Given the compound `COc1cc(/C=N/n2c(CN3CCOCC3)nc3ccccc3c2=O)cc(OC)c1OC` , what is its reported growth?
103% (inactive)

Given the compound `Cc1ccc(-c2c(-c3ccccc3)c(=O)oc3ccc(C)cc23)cc1` , what is its reported growth?
118% (inactive)

Batch of 6 compounds: report growth for each.
1. CCCCCCCCCCN(CCCCCCCCCC)CC(=O)c1ccc2cc(Br)c3ccccc3c2c1
2. CC/C=C1/C(=O)C=C[C@@H]1C/C=C\CCCC(=O)O
3. CCN(CC)Cc1cccc(C(=O)OC)c1
4. COc1ccc(-c2nc(SCCC(C)C)nc(N/N=C\c3cccc([N+](=O)[O-])c3)c2C#N)cc1
5. CCCCc1ccc(Nc2ccc(Nc3ccc(CCCC)cc3S(=O)(=O)O)c3c2C(=O)c2ccccc2C3=O)c(S(=O)(=O)O)c1
6. O=C1/C(=C\c2c[nH]c3ccccc23)c2ccccc2N1c1c(Cl)cccc1Cl

1: 79.9% (inactive); 2: 105% (inactive); 3: 92.5% (inactive); 4: 42.5% (inactive); 5: 114% (inactive); 6: -29.4% (active)

Batch of 8 compounds: report growth for each.
1. COc1cccc(C(=O)NCCNc2cc(-c3cn(-c4ccccc4)nc3-c3cccc(OC)c3)ccn2)c1
2. CN1C(=O)N(C)C2C1NN=c1s/c(=C\c3ccccc3)c(=O)n12 (centres undefined)
3. O=[N+]([O-])c1ccc(-c2cc(-c3ccc(Nc4nc(Nc5ccc(Cl)cc5)nc(Nc5ccc(Cl)cc5)n4)cc3)no2)cc1
4. O=C(CCCCCCN1CC(=O)N2[C@@H](c3ccccc3Cl)c3[nH]c4ccccc4c3C[C@H]2C1=O)NO
5. N#C/C(=C\c1ccc2c(c1)OCO2)n1nnc2cc(F)c(F)cc21
6. CCN(CC)c1nc(SCC(=O)Nc2nc3ccc(C)cc3s2)nc(-c2ccccc2)c1C#N
7. Cc1ccc2c(c1)Sc1c(ccc3ccccc13)N2
8. CCCCCCCC/C=C\CCCCCCCCOc1ccccc1CC(=O)NCC[N+](C)(C)C

["80.4% (inactive)", "10% (inactive)", "105% (inactive)", "68.9% (inactive)", "101% (inactive)", "94.6% (inactive)", "127% (inactive)", "9.37% (active)"]

Batch of 2 compounds: report growth for each.
1. O=C(/C=C/c1ccco1)c1ccc(Nc2nc(Nc3ccc(F)cc3)nc(Nc3ccc(Cl)cc3)n2)cc1
2. COc1cc2c(cc1-c1c(C)noc1C)ncc1nc(C3CCCCC3)n(C3CCC(OC(F)F)CC3)c12 (centres undefined)

1. 84% (inactive)
2. 24.1% (inactive)
